Test system: UO-31 renal
assaySummary: NCI-60 one-dose screen, 48 h
experimentalSetup: 10 µM unless noted
Compounds without any hit were thinned out: in the full panel of roughly 83,000, 20% have a hit. Active and inactive are the calls of the source. Rule for the calls: active = growth percent below 10; inactive = the rest.
Just give me one of these, please: active, inactive

Solved cases below.
# chemicalSmiles, assignedClass
measured = [
    ("CN1C(=O)/C(=C\\C(=O)c2cc3ccccc3oc2=O)c2ccccc21", "inactive"),
    ("Cc1ccc(C(=O)Nc2cc(-n3ccnc3C)cc(C(F)(F)F)c2)cc1C#Cc1cnc2cccnn12", "active"),
    ("Cn1cc(-c2cc(N)n3nc(-c4c[nH]c5ccc(F)cc45)cc3n2)c2cc(Br)cnc21", "inactive"),
]

How did this test come out for `c1n[nH]cc1-c1nc2ccc3[nH]ncc3c2c2c1CC1(CCOCC1)CC2` ?
inactive

How did this test come out for `C=CCSc1nnc(-c2ccc(-c3nc4ccc(Cl)cc4[nH]3)cc2)o1` ?
inactive

====

Test system: TK-10 renal
assaySummary: NCI-60 one-dose screen, 48 h
experimentalSetup: 10 µM unless noted
This is part of a sample that, as a whole, favours compounds with a hit. Of some 83,000 tested, about 20% had one in any assay. Activity calls are given as the source filed them. The calls were made as follows: active = growth percent below 10; inactive = the rest.
Just give me one of these, please: active, inactive

Solved cases below.
# compound, assignedClass
data = [
    ("C/C(=N\\Nc1ccc(S(N)(=O)=O)cc1)c1cnn(-c2cc(=O)[nH]c3ccc(Br)cc23)c1C", "inactive"),
    ("CCCCCCCCc1ccc(C(=O)Nc2cccc(O)c2)cc1", "inactive"),
    ("COC(=O)c1cc(C(=O)C(Br)Br)n2c1ccc1c3ccccc3ccc12", "inactive"),
    ("Cc1ccc(-c2cc(C(=O)N=Nc3c(O)[nH]c4ccc(F)cc34)c3ccccc3n2)cc1", "inactive"),
    ("NCCCCn1c(SCCc2c[nH]c3ccccc23)nnc1-c1ccc2ccccc2n1", "active"),
    ("N#CC1=C(c2ccco2)Nc2c(c(-c3ccccc3)nn2-c2ccccc2)C12C(=O)Nc1ccc(Br)cc12 (centres undefined)", "inactive"),
    ("Cc1cn(-c2cc(NC(=O)c3ccc(C)c(-n4cc(-c5cnc6cccnn56)nn4)c3)cc(C(F)(F)F)c2)cn1", "inactive"),
    ("Cc1nn(-c2ccccc2)c2nc(C)n(C(=O)N/N=C/c3cccc([N+](=O)[O-])c3)c(=O)c12", "inactive"),
]

Please turn your attention to the following entry.
How did this test come out for CCc1ccc(SC2c3cc(OC)ccc3Oc3nc(N)c(C#N)c(N)c32)cc1 (centres undefined) ?
active

====

Tested on: BT-549 breast
assaySummary: NCI-60 one-dose screen, 48 h (100 = growth as untreated, 0 = no growth, -100 = all killed)
experimentalSetup: 10 µM unless noted
Compounds without any hit were thinned out: in the full panel of roughly 83,000, 20% have a hit. Calls of active or inactive are those of the source. The calls were made as follows: active = growth percent below 10; inactive = the rest.
Below, each entry is listed with its recorded growth.

Worked set:
# chemicalSmiles, growth
measured = [
    ("Cc1ccc(N=Nc2c(N)nn3c(-c4cc5ccccc5oc4=O)ccnc23)cc1", "74.5% (inactive)"),
    ("c1n[nH]cc1-c1nc2ccc3[nH]ncc3c2c2c1CC1(CC2)COC1", "-7.9% (active)"),
]

What does the record list as growth for `COc1ccc(N=Nc2c(N)nn3c(N)c(C#N)c(-c4ccc(C)cc4)nc23)cc1` ?
56.2% (inactive)

What does the record list as growth for `CCCCCCCCc1ccc(C(=O)Nc2ccc(C)c(OP(=O)(O)O)c2)cc1` ?
88.9% (inactive)

What does the record list as growth for `COc1ccc(N=Nc2c(N)nn3c(N)c(C#N)c(-c4ccc(F)cc4)nc23)cc1` ?
49.3% (inactive)

What does the record list as growth for `CN(C)c1nc(NCCNS(=O)(=O)c2ccc(C(=O)/C=C/c3ccccc3)cc2)nc(N2CCOCC2)n1` ?
94.3% (inactive)

What does the record list as growth for `CC[C@]12C=CCN3CC[C@]4(C(=C(C(=O)OC)C1)Nc1cc(OC)c([C@@H]5[C@H]6O[C@H]6[C@@]6(CC)CC(C(=O)OC)=C7Nc8cc(O)ccc8[C@@]78CCN5[C@@H]68)cc14)[C@@H]32` ?
-29% (active)

What does the record list as growth for `C/C(=N/O)c1ccc(NC(=O)CSc2nnc(-c3ccc4nc(-c5ccc(Cl)cc5)[nH]c4c3)o2)cc1` ?
-8.14% (active)

====

Tested on: SF-268 CNS
assaySummary: NCI-60 one-dose screen, 48 h (100 = growth as untreated, 0 = no growth, -100 = all killed)
experimentalSetup: 10 µM unless noted
About 83,000 compounds went through this panel and 20% of them were active in at least one assay; those are over-represented in the sample as a whole.
Please assign 0.0 whenever growth is at or above 50%, and 1.0 whenever it is below.

Solved cases below.
# compound, assignedClass
rows = [
    ("COc1ccc(-n2c(NC(=O)N3CCN(C)CC3)c(C#N)c3ccccc32)cc1", 1.0),
    ("N#Cc1ccc(C(=O)CSc2nc3c(c(Nc4ccc(S(N)(=O)=O)cc4)n2)CCC3)cc1", 1.0),
    ("CN(C)c1nc(NCCNS(=O)(=O)c2ccc(C(=O)/C=C/c3ccccc3)cc2)nc(N2CCOCC2)n1", 0.0),
    ("N#C/C(=C1/C(=O)Nc2ccccc21)c1nnc(NC(=O)c2ccc(-n3c(=O)[nH]c4ccccc4c3=O)cc2)s1", 0.0),
    ("CCOC(=O)c1ccc(NC(=S)NC(=O)c2ccc(NC(=O)C(C)C)cc2OC)cc1", 0.0),
]

Strictly below 50% in growth? Oc1ccc(F)c(Nc2nc(SCCN3CCOCC3)nc3c2cnn3CC(Cl)c2ccc(Br)cc2)c1 (centres undefined)
1.0

Strictly below 50% in growth? `O=C(Nc1nc2ccc([N+](=O)[O-])cc2s1)Nc1ccccc1F`
1.0

Strictly below 50% in growth? `COc1ccc(N=Nc2c(N)nn3c(-c4cc5cc(Br)ccc5oc4=O)ccnc23)cc1`
1.0

Strictly below 50% in growth? `Cc1ccc(C(C)C)cc1Oc1cccc(-c2c(-c3ccc(C(F)(F)F)cc3)ncn2C2CCNCC2)n1`
1.0

====

Tested on: HCC-2998 colon
assaySummary: NCI-60 one-dose screen, 48 h (100 = growth as untreated, 0 = no growth, -100 = all killed)
experimentalSetup: 10 µM unless noted
The panel holds about 83,000 compounds, 20% with a hit somewhere; the sample as a whole holds those more often.
Please assign class 0 whenever growth is at or above 40%, and class 1 whenever it is below.

Solved cases below.
# compound, studyTarget, assignedClass
data = [
    ("COc1ccc2[nH]c(O)c(N=Nc3nc(-c4ccc(Cl)cc4)cs3)c2c1", "HCC-2998 colon", "class 1"),
    ("N#Cc1ccc(C(=O)NNC(=O)CSc2nc3sc4c(c3c(=O)n2-c2ccc(Cl)cc2)CCCC4)cc1", "HCC-2998 colon", "class 0"),
    ("O=C(c1ccc(Cl)cc1)C1[C@H](c2ccccc2Cl)[C@@H](c2ccccc2)NC12C(=O)Nc1ccccc12 (some centres undefined)", "HCC-2998 colon", "class 1"),
    ("COc1ccc2[nH]c(O)c(N=NC(=O)c3ccc4nc(-c5ccc(Cl)cc5)[nH]c4c3)c2c1", "HCC-2998 colon", "class 0"),
    ("Cc1nn(-c2ccccc2)c2nc(C)n(CC(=O)N/N=C/c3cccc([N+](=O)[O-])c3)c(=O)c12", "HCC-2998 colon", "class 0"),
]

Strictly below 40% in growth? `Cc1nn(-c2ccccc2)c2nc(C)n(CC(=O)N/N=C/c3ccccc3O)c(=O)c12`
class 1

Strictly below 40% in growth? `COc1ccc(-c2nc3ccc(-c4nnc(SCc5ccccc5)o4)cc3[nH]2)cc1OC`
class 0

Strictly below 40% in growth? `O=C(CSc1nnc(-c2ccc(-c3nc4ccc(Cl)cc4[nH]3)cc2)o1)Nc1ccc(Br)cc1`
class 0

====

Tested on: IGROV1 ovarian
assaySummary: NCI-60 one-dose screen, 48 h (100 = growth as untreated, 0 = no growth, -100 = all killed)
experimentalSetup: 10 µM unless noted
The panel holds about 83,000 compounds, 20% with a hit somewhere; the sample as a whole holds those more often.
valueType: growth (%)
Give the number; % is assumed, so skip it.

Worked set:
# compound, growth / %
rows = [
    ("Cc1[nH]nc2ccc3nc(-c4cnn(CCO)c4)c4c(c3c12)CCCC4", 44.5),
    ("Cc1ccc(-c2cc(C(=O)N=Nc3c(O)[nH]c4ccc(F)cc34)c3ccccc3n2)cc1", 52.9),
    ("CCC(=O)c1c2c(c3ccc4c5ccccc5ccc4n13)C(=O)c1ccccc1C2=O", 75.6),
    ("CCCN(CCC)S(=O)(=O)c1ccc(C(=O)O)cc1.CCCN(CCC)S(=O)(=O)c1ccc(C(=O)O)cc1.[Cl][Pt+2][Cl].[NH2-].[NH2-]", 7.54),
    ("O=[N+]([O-])c1cccc(-c2nnc3c(/C=C/c4ccc(F)cc4)nc4ccccc4n23)c1", 109),
]

Item `COC(=O)c1cc(C(=O)C(F)(F)F)n2c3ccccc3c3ccccc3c12` with IGROV1 ovarian - growth?
40

Item `O=C(Cc1c(-c2ccccc2[N+](=O)[O-])n(-c2ncnc3c2c(-c2ccccc2)c(-c2ccccc2)n3Cc2ccccc2)[nH]c1=O)c1ccc(Cl)c(Cl)c1` with IGROV1 ovarian - growth?
25.2

Item CN(C(=O)CN1C(=O)/C(=C/c2ccco2)SC1=S)C1CCS(=O)(=O)C1 (stereo not drawn) with IGROV1 ovarian - growth?
116

Sourced from PubChem BioAssay (NCI)
